The reported measurements were obtained from patent US11286243B2.

Target: human ferroportin (Homo sapiens, UniProt Q9NP59)
Construct: luciferase reporter (probably NanoLuc: read with the Nano-Glo Luciferase Assay System); expressed in transfected cells; host or cells: CHO cells, stably transfected, doxycycline-inducible expression
Sequence (Q9NP59 whole entry): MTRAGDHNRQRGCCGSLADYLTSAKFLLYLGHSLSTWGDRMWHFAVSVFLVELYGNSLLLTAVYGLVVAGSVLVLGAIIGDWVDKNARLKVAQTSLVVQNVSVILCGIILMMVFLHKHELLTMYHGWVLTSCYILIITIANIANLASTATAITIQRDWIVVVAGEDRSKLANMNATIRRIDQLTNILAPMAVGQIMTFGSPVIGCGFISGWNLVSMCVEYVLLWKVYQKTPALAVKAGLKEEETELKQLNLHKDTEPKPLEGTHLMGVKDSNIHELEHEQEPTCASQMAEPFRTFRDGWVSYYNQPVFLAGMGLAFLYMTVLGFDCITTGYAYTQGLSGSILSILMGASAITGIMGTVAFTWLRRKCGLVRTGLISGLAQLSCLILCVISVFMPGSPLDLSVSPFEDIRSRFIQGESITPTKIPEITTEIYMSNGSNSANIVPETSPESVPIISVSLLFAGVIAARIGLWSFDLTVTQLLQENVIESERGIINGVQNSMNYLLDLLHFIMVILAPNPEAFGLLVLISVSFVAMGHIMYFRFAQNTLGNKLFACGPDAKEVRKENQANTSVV
Assay: In-vitro ferroportin internalization assay (luciferase reporter)
Format: cell-based
Details: average pEC50; stably-transfected CHO cell line expressing human ferroportin tagged to a luciferase reporter; 6 h incubation with test compounds
Please go through the items and note down their pEC50.
Numbers only.

COc1cc2sc(CCNCCc3nc4ccccc4[nH]3)nc2c(NCc2ncccc2F)n1 : 6.2
Fc1cccnc1CNc1ncnc2sc(CCNCCc3ncc(-c4cccnc4)[nH]3)nc12 : 5.8
Oc1ccccc1CCNCCc1nc2c(NCc3ncccc3F)ncnc2s1 : 4.9

Can you give me pEC50 for all of these, one by one?
1. Cc1nc(CCNCCc2nc3c(NCc4ncccc4F)nccc3s2)[nH]c1C
2. CC(NCCc1nc2c(NCc3ncccc3F)ncnc2s1)c1ccccc1O (stereo not shown)
3. Fc1cccnc1CNc1ncnc2sc(CCNCCc3ncc(C4CC4)[nH]3)nc12
4. Fc1cccnc1CNc1ncnc2sc(CCNCC(F)c3nc4ccccc4[nH]3)nc12 (stereo not shown)
5. Fc1cccnc1CNc1ncnc2sc(C(F)CNCCc3nc4ccccc4[nH]3)nc12 (stereo not shown)
6. Fc1cccnc1CNc1ncnc2sc(CCNCCc3ncc[nH]3)nc12
7. Cc1nc(CCNCCc2nc3c(NCc4ncccc4F)ncnc3s2)[nH]c1-c1ccccc1

7.6
4.9
8.2
6.4
7.3
7.3
7

---

Molecular target: human ferroportin (Homo sapiens)
Construct: luciferase reporter (probably NanoLuc: read with the Nano-Glo Luciferase Assay System); expressed in transfected cells; host or cells: CHO cells, stably transfected, doxycycline-inducible expression
Assay: In-vitro ferroportin internalization assay (luciferase reporter)
Assay type: cell-based
Details: average pEC50; stably-transfected CHO cell line expressing human ferroportin tagged to a luciferase reporter; 6 h incubation with test compounds
measurementLabel: pEC50

Fc1cccnc1CNc1nccc2oc(CCNCCc3ncc(CC4CC4)[nH]3)nc12 : 5.1
CN(CCc1nc2ccccc2[nH]1)CCc1nc2c(NCc3ncccc3F)ncnc2s1 : 5.7
C[C@@H](Cc1nc2c(NCc3ncccc3F)ncnc2s1)NCCc1nc2ccccc2[nH]1 : 6.3
C[C@H](Cc1nc2c(NCc3ncccc3F)ncnc2s1)NCCc1nc2ccccc2[nH]1 : 6.5
C[C@H](CNCCc1nc2c(NCc3ncccc3F)ncnc2s1)c1nc2ccccc2[nH]1 : 6.6

Can you give me pEC50 for all of these, one by one?
1. Fc1cccnc1CNc1ncnc2sc(CCNCc3nc4ccccc4[nH]3)nc12
2. Fc1ccc(CNc2ncnc3sc(CCNCCc4nc5ccccc5[nH]4)nc23)nc1
3. Oc1nc(NCc2ncccc2F)c2nc([C@H](F)CNCCc3nc4ccccc4[nH]3)sc2n1
4. Cc1nc(CCNCCc2nc3c(NCc4ncccc4F)ncnc3s2)[nH]c1C
5. O=c1c2ccccc2[nH]n1CCNCCc1nc2c(NCc3ncccc3F)ncnc2s1
6. Fc1cccnc1CNc1ncnc2sc(CCNCc3nc(-c4ccccc4)c[nH]3)nc12

6.7
6.4
7.1
7.6
5.1
6.9

Can you give me pEC50 for all of these, one by one?
1. Fc1cccnc1CNc1nccc2oc(CCNCCc3ncc(Cc4ccccc4)[nH]3)nc12
2. Oc1nc(NCc2ncccc2F)c2nc(CCNCCc3nc4ccccc4[nH]3)sc2n1
3. Fc1cccnc1CNc1ncnc2sc(CCNCCc3ncc(-c4ccccc4)[nH]3)nc12
4. [N-]=[N+]=Nc1cccnc1CNc1ncnc2sc(CCNCCc3nc4ccccc4[nH]3)nc12

1. 7.7
2. 8.8
3. 7.1
4. 7.7

Can you give me pEC50 for all of these, one by one?
1. Fc1cccnc1CNc1ncnc2sc(CC3CCCC(Cc4nc5ccccc5[nH]4)N3)nc12 (stereo not drawn)
2. CC(CNCCc1nc2ccccc2[nH]1)c1nc2c(NCc3ncccc3F)ncnc2s1 (stereo not drawn)
3. Oc1cccc(CNCCc2nc3c(NCc4ncccc4F)nccc3o2)c1

1. 5.2
2. 5.8
3. 5.1

Can you give me pEC50 for all of these, one by one?
1. Fc1cccnc1CNc1ncnc2oc(CCNCCc3nc4ccccc4[nH]3)nc12
2. c1ccc(CNc2ncnc3sc(CCNCCc4nc5ccccc5[nH]4)nc23)nc1
3. Fc1cccnc1CNc1ncnc2sc(CCNCCc3nc4ccccc4[nH]3)nc12
4. CC(CNCCc1nc2c(NCc3ncccc3F)ncnc2s1)c1nc2ccccc2[nH]1 (stereo not drawn)
5. Fc1ccc(-c2cnc(CCNCCc3nc4c(NCc5ncccc5F)ncnc4s3)[nH]2)cc1
6. Fc1cccnc1CNc1ncnc2sc(CCNCCc3nc4ncccc4[nH]3)nc12

[7.3, 6.8, 7.8, 7.2, 5.8, 6.2]
